Assay: AUC in rat at 5 mg/kg, po after 4 hrs
Type: ADME, organism-based
Design: time < 4 hr, dose 5 mg/kg, route oral
Conditions: plasma
Experimental Endpoint: AUC at 4 h (µM·h)

Worked set:
molecular_string=O=C([C@@H](c1ccccc1)N1CCCCC1)N1CCC[C@H]1c1ncc(-c2ccc(-c3ccc(-c4cnc([C@@H]5CCCN5C(=O)[C@@H](c5ccccc5)N5CCCCC5)[nH]4)cc3)cc2)[nH]1 result_value=0.047
molecular_string=COC(=O)N[C@H](C(=O)N1CCC[C@H]1c1nc(-c2ccc(-c3ccc(-c4c[nH]c([C@@H]5CCCN5C(=O)[C@@H](NC(=O)OC)C(C)C)n4)cc3)cc2)c[nH]1)C(C)C result_value=2.18
molecular_string=COC(=O)N[C@@H](C(=O)N1CCC[C@H]1c1ncc(-c2ccc(-c3ccc(-c4cnc([C@@H]5CCCN5C(=O)[C@@H]5CCCO5)[nH]4)cc3)cc2)[nH]1)c1ccccc1 result_value=0.127
molecular_string=COC(=O)N[C@@H](C(=O)N1CCC[C@H]1c1ncc(-c2ccc(-c3ccc(-c4cnc([C@@H]5CCCN5C(=O)[C@H]5CCCO5)[nH]4)cc3)cc2)[nH]1)c1ccccc1 result_value=0.809
molecular_string=CCN(CC)[C@@H](C(=O)N1CCC[C@H]1c1ncc(-c2ccc(-c3ccc(-c4cnc([C@@H]5CCCN5C(=O)[C@@H](NC(=O)OC)C(C)C)[nH]4)cc3)cc2)[nH]1)c1ccccc1 result_value=0.034
molecular_string=COC(=O)N[C@@H](C)C(=O)N1CCC[C@H]1c1ncc(-c2ccc(-c3ccc(-c4cnc([C@@H]5CCCN5C(=O)[C@H](C)NC(=O)OC)[nH]4)cc3)cc2)[nH]1 result_value=0.281
molecular_string=COC(=O)N[C@H](C(=O)N1CCC[C@H]1c1ncc(-c2ccc(-c3ccc(-c4cnc([C@@H]5CCCN5C(=O)[C@@H](NC(=O)OC)[C@@H](C)OC)[nH]4)cc3)cc2)[nH]1)[C@@H](C)OC result_value=0.472
molecular_string=O=C([C@@H](c1ccccc1)N1CCCC1)N1CCC[C@H]1c1ncc(-c2ccc(-c3ccc(-c4cnc([C@@H]5CCCN5C(=O)[C@@H](c5ccccc5)N5CCCC5)[nH]4)cc3)cc2)[nH]1 result_value=0.005

[I] CCN(CC)[C@@H](C(=O)N1CCC[C@H]1c1ncc(-c2ccc(-c3ccc(-c4cnc([C@@H]5CCCN5C(=O)[C@H](C)NC(=O)OC)[nH]4)cc3)cc2)[nH]1)c1ccccc1
[II] CCN(C)[C@@H](C(=O)N1CCC[C@H]1c1ncc(-c2ccc(-c3ccc(-c4cnc([C@@H]5CCCN5C(=O)[C@@H](c5ccccc5)N(C)CC)[nH]4)cc3)cc2)[nH]1)c1ccccc1
[III] CCN(CC)[C@@H](C(=O)N1CCC[C@H]1c1ncc(-c2ccc(-c3ccc(-c4cnc([C@@H]5CCCN5C(=O)[C@@H](c5ccccc5)N(CC)CC)[nH]4)cc3)cc2)[nH]1)c1ccccc1
stdin: Put the compounds in ascending order of AUC at 4 h. Please list the labels in the order you were asked to rank them.
stdout: II, III, I

====

Experiment: Permeability of the compound at PH 7.4 by PAMPA
Assay type: ADME
Settings: read-out: permeability
Experimental Endpoint: Papp (×10⁻⁶ cm/s)

molecular_string=COC(=O)N[C@@H](C(=O)N1CCC[C@H]1c1ncc(-c2ccc(-c3ccc(-c4cnc([C@@H]5CCCN5C(=O)[C@@H](C)NC(C)=O)[nH]4)cc3)cc2)[nH]1)c1ccccc1 experimental_endpoint=Papp result_value=2.8
molecular_string=COC(=O)N[C@H](C(=O)N1CCC[C@H]1c1ncc(-c2ccc(-c3ccc(-c4cnc([C@@H]5CCCN5C(=O)[C@@H](NC(=O)OC)C5CC5)[nH]4)cc3)cc2)[nH]1)C1CC1 experimental_endpoint=Papp result_value=50

[1] COC(=O)N[C@H](C)C(=O)N1CCC[C@H]1c1ncc(-c2ccc(-c3ccc(-c4cnc([C@@H]5CCCN5C(=O)[C@@H](C)NC(=O)OC)[nH]4)cc3)cc2)[nH]1
[2] CN(C)[C@@H](C(=O)N1CCC[C@H]1c1ncc(-c2ccc(-c3ccc(-c4cnc([C@@H]5CCCN5C(=O)[C@@H]5CCCO5)[nH]4)cc3)cc2)[nH]1)c1ccccc1
stdin: 1 or 2 : whose Papp is greater? State the label of the item chosen.
stdout: 2
(2: 20 ×10⁻⁶ cm/s, 1: 4.7 ×10⁻⁶ cm/s)

[I] CCN(CC)[C@@H](C(=O)N1CCC[C@H]1c1ncc(-c2ccc(-c3ccc(-c4cnc([C@@H]5CCCN5C(=O)[C@@H](NC(=O)OC)C(C)C)[nH]4)cc3)cc2)[nH]1)c1ccccc1
[II] COC(=O)NC1(C(=O)N2CCC[C@H]2c2ncc(-c3ccc(-c4ccc(-c5cnc([C@@H]6CCCN6C(=O)C6(NC(=O)OC)CC6)[nH]5)cc4)cc3)[nH]2)CC1
[III] CCOC(=O)N[C@@H](C)C(=O)N1CCC[C@H]1c1ncc(-c2ccc(-c3ccc(-c4cnc([C@@H]5CCCN5C(=O)[C@H](C)NC(=O)OCC)[nH]4)cc3)cc2)[nH]1
[IV] COC(=O)N[C@@H](C(=O)N1CCC[C@H]1c1ncc(-c2ccc(-c3ccc(-c4cnc([C@@H]5CCCN5C(=O)[C@H](NC(=O)OC)c5ccccc5)[nH]4)nc3)cc2)[nH]1)c1ccccc1
stdin: # desc sort on Papp across 4 molecules Please list the labels in the order you were asked to rank them.
stdout: I, III, IV, II

[1] COC(=O)N[C@@H](C)C(=O)N1CCC[C@H]1c1ncc(-c2ccc(-c3ccc(-c4cnc([C@@H]5CCCN5C(=O)[C@H](NC(=O)OC)c5ccccc5)[nH]4)cc3)cc2)[nH]1
[2] COC(=O)NC(C)(C)C(=O)N1CCC[C@H]1c1ncc(-c2ccc(-c3ccc(-c4cnc([C@@H]5CCCN5C(=O)C(C)(C)NC(=O)OC)[nH]4)cc3)cc2)[nH]1
[3] COC(=O)N[C@@H](C(=O)N1CCC[C@H]1c1ncc(-c2ccc(-c3ccc(-c4cnc([C@@H]5CCCN5C(=O)[C@H](C)NC(C)=O)[nH]4)cc3)cc2)[nH]1)c1ccccc1
[4] CCN(CC)[C@@H](C(=O)N1CCC[C@H]1c1ncc(-c2ccc(-c3ccc(-c4cnc([C@@H]5CCCN5C(=O)[C@H](C)NC(=O)OC)[nH]4)cc3)cc2)[nH]1)c1ccccc1
stdin: # desc sort on Papp across 4 molecules Please list the labels in the order you were asked to rank them.
stdout: 1, 4, 3, 2
